Origin of the recorded values: patent US20220411492A1

- measuredTarget: murine CLDN18.2 (mCLDN18.2) (murine) (UniProt P56857)
- protocolDetails: FACS, HEK293-mCLDN18.2 cells
recordedMetric: Mean maximum fluorescence intensity (Top MFI)
Record the value in MFI, omitting the unit from your answer.

binder	reportedMeasurement
ch-126A11 (antibody, V domains shown, also called chimeric antibody of clone 126A11) VH: QVQLKESGPGLVAPSQSLSITCTVSEFSLTTYGVSWVRQPPGKGLEWLGVIWGDGSTNYHSALISRLSISKDTSKSQVFLKLNSLQTDDTATYYCAKPGLRNAMDYWGQGTSVTVSS VL: DIVMTQSPSSLSVSAGEKVTMSCKSSQSLLNSGNQKNYLAWYQQKPGQPPKLLIYGASTRESGVPDRFTGSGSGTDFTLTISSVQAEDLAVYYCQNDLIYPLTFGAGTKLELK	7640
hu253C4-N31Q-3 (antibody, V domains shown) VH: QVQLVQSGAEVKKPGASVKVSCKTSGYIFTSYWIHWVRQAPGQGLEWMGRFYPGTGTAYYNENFEGRVTLTADTSISTAYMELSRLRSDDTAVYYCTREGYGKGNSMDYWGQGTTVTVSS VL: DIVMTQSPDSLAVSLGERATINCKSSQSLLQSGNQKNYLTWYQQKPGQPPKLLIYWASTRESGVPDRFSGSGSGTDFTLTISSLQAEDVAVYYCQNDYYFPFTFGGGTKLEIK	42100

Next, consider the following binder.
I would be grateful if you could share the reported Mean maximum fluorescence intensity (Top MFI) for ch-299B2 (antibody, V domains shown, also called chimeric antibody of clone 299B2) VH: QVQLKQSGPELVRPGASVKLSCKTSGYIFTNYWIHWVKQRSGQGLEWVVRIYPGTGNTYYNEKFTGKATLTADKSSSTAYMQLSSLKYEDSAVYFCSREGYGKGNSMDYWGQGTSVTVSS VL: DIVMTQSPSSLTVTAGEKVTMNCKSSQSLLNSGNQKNYLTWYQQKPGQPPKLLFYWASTRESGVPDRFTGSGSGTDFTLTISSVQAEDLAVYHCQNAYYYPYTFGGGTKLEMK .
13600
